Measured self-splicing fitness (ln) of individual entries
Assay: self-splicing fitness, log relative to wild type (ln ratio); higher = more splicing; Tetrahymena group I intron in knt gene, E. coli kanamycin selection, DiMSum; sequences stand for … in CUCUCU…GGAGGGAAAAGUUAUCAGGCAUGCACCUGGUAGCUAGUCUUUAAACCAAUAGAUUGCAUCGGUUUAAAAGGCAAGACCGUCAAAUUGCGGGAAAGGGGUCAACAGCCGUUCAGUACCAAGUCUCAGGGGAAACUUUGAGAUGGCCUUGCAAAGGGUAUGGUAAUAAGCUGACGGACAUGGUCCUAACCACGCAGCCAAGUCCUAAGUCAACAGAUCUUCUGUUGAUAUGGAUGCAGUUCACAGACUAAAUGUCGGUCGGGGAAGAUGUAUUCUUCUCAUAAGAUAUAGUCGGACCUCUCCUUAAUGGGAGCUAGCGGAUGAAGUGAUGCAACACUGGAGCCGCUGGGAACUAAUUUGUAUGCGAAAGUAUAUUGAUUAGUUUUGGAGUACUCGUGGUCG;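 also: selection with 25 µg/mL kanamycin versus none on LB agar overnight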
Details: 37 °C
measured.endpoint: self-splicing fitness (ln)

INSERT INTO assay_data (query_sequence, result) VALUES
  ('ACAAAGCAAUAUUACGUGAU', -1.09),
  ('AGAAAGCAAUAUUACGAACA', -0.288),
  ('GCUUAGCAAUAUUACGUUGU', -0.844),
  ('AACAAGCAAUAUUACGACAG', -1.76),
  ('UGCCAGCAAUAUUACGUCAU', -2.38),
  ('AUAGAGCAAUAUUACGUACG', -1.53),
  ('GUCAAGCAAUAUUACGGAGA', -3.41),
  ('UAGAAGCAAUAUUACGCGUA', -0.472),
  ('CAGAAGCAAUAUUACGCACA', -0.438),
  ('UAACAGCAAUAUUACGCCUG', 0.182),
  ('GAAAAGCAAUAUUACGUGGU', -2.79),
  ('CCAUAGCAAUAUUACGCUUG', -1.35),
  ('GAGAAGCAAUAUUACGUGUC', -2.1),
  ('GGAGAGCAAUAUUACGGGUC', -1.53),
  ('AGACAGCAAUAUUACGUGCG', -0.653),
  ('AACAAGCAAUAUUACGGCGC', 0.0559);
